- Test system: Streptococcus pneumoniae
- test-name: Antimicrobial activity against erythromycin-resistant Streptococcus pneumoniae B1 expressing the erm gene by broth microdilution method
- Format: functional
Record form. Attribute: MIC. Fill in for each entry.
Numbers only, in µg/mL.

These solved cases illustrate the format of a correct answer.
{"columns": ["molecule", "readout-unit", "observed-measurement"],
 "data": [
  ["CC[C@H]1OC(=O)[C@H](C)[C@@H](O[C@H]2C[C@@](C)(OC)[C@@H](OC(=O)NCCCCCC(=O)NC(C)C)[C@H](C)O2)[C@H](C)[C@@H](O[C@@H]2O[C@H](C)C[C@H](N(C)C)[C@H]2O)[C@](C)(OC)C[C@@H](C)C(=O)[C@H](C)[C@@H](O)[C@]1(C)O", "µg/mL", 128],
  ["CC[C@H]1OC(=O)[C@H](C)[C@@H](O[C@H]2C[C@@](C)(OC)[C@@H](OC(=O)NCCCC(=O)NCCc3ccc(O)cc3)[C@H](C)O2)[C@H](C)[C@@H](O[C@@H]2O[C@H](C)C[C@H](N(C)C)[C@H]2O)[C@](C)(OC)C[C@@H](C)C(=O)[C@H](C)[C@@H](O)[C@]1(C)O", "µg/mL", 0.25],
  ["CC[C@H]1OC(=O)[C@H](C)[C@@H](O[C@H]2C[C@@](C)(OC)[C@@H](OC(=O)NCCCCCC(=O)NCCc3ccc(O)cc3)[C@H](C)O2)[C@H](C)[C@@H](O[C@@H]2O[C@H](C)C[C@H](N(C)C)[C@H]2O)[C@](C)(OC)C[C@@H](C)C(=O)[C@H](C)[C@@H](O)[C@]1(C)O", "µg/mL", 64]
]}

stdin: GET /values?readout=MIC&item= CCCCCNC(=O)CCCNC(=O)O[C@H]1[C@H](C)O[C@@H](O[C@H]2[C@H](C)[C@@H](O[C@@H]3O[C@H](C)C[C@H](N(C)C)[C@H]3O)[C@](C)(OC)C[C@@H](C)C(=O)[C@H](C)[C@@H](O)[C@](C)(O)[C@@H](CC)OC(=O)[C@@H]2C)C[C@@]1(C)OC
stdout: 8

---

- Tested on: Streptococcus pneumoniae
- test-name: Antimicrobial activity against erythromycin-resistant Streptococcus pneumoniae B1 expressing the erm gene by broth microdilution method
- Assay type: functional
Please respond with reported MIC for every item in the list.
Numbers only, in µg/mL.

{"columns": ["compound", "readout-unit", "observed-measurement"],
 "data": [
  ["CCCCCNC(=O)O[C@H]1[C@H](C)O[C@@H](O[C@H]2[C@H](C)[C@@H](O[C@@H]3O[C@H](C)C[C@H](N(C)C)[C@H]3O)[C@](C)(OC)C[C@@H](C)C(=O)[C@H](C)[C@@H](O)[C@](C)(O)[C@@H](CC)OC(=O)[C@@H]2C)C[C@@]1(C)OC", "µg/mL", 32],
  ["CCCCNC(=O)CCCNC(=O)O[C@H]1[C@H](C)O[C@@H](O[C@H]2[C@H](C)[C@@H](O[C@@H]3O[C@H](C)C[C@H](N(C)C)[C@H]3O)[C@](C)(OC)C[C@@H](C)C(=O)[C@H](C)[C@@H](O)[C@](C)(O)[C@@H](CC)OC(=O)[C@@H]2C)C[C@@]1(C)OC", "µg/mL", 128]
]}

Hey, quick one: what's MIC for each of these?
1. CC[C@H]1OC(=O)[C@H](C)[C@@H](O[C@H]2C[C@@](C)(OC)[C@@H](OC(=O)NCCCC(=O)NCc3ccc(OC)cc3)[C@H](C)O2)[C@H](C)[C@@H](O[C@@H]2O[C@H](C)C[C@H](N(C)C)[C@H]2O)[C@](C)(OC)C[C@@H](C)C(=O)[C@H](C)[C@@H](O)[C@]1(C)O
2. CC[C@H]1OC(=O)[C@H](C)[C@@H](O[C@H]2C[C@@](C)(OC)[C@@H](O)[C@H](C)O2)[C@H](C)[C@@H](O[C@@H]2O[C@H](C)C[C@H](N(C)C)[C@H]2O)[C@](C)(O)C[C@@H](C)CN(C)[C@H](C)[C@@H](O)[C@]1(C)O [AZITHROMYCIN]
3. CC[C@H]1OC(=O)[C@H](C)[C@@H](O[C@H]2C[C@@](C)(OC)[C@@H](OC(=O)NCCCCCC(=O)NCc3ccc(F)cc3)[C@H](C)O2)[C@H](C)[C@@H](O[C@@H]2O[C@H](C)C[C@H](N(C)C)[C@H]2O)[C@](C)(OC)C[C@@H](C)C(=O)[C@H](C)[C@@H](O)[C@]1(C)O

stdout:
[0.06, 128, 2]

Can you give me MIC for all of these, one by one?
1. CC[C@H]1OC(=O)[C@H](C)[C@@H](O[C@H]2C[C@@](C)(OC)[C@@H](OC(=O)NCCCCCC(=O)NCc3ccccc3)[C@H](C)O2)[C@H](C)[C@@H](O[C@@H]2O[C@H](C)C[C@H](N(C)C)[C@H]2O)[C@](C)(OC)C[C@@H](C)C(=O)[C@H](C)[C@@H](O)[C@]1(C)O
2. CCCNC(=O)CCCNC(=O)O[C@H]1[C@H](C)O[C@@H](O[C@H]2[C@H](C)[C@@H](O[C@@H]3O[C@H](C)C[C@H](N(C)C)[C@H]3O)[C@](C)(OC)C[C@@H](C)C(=O)[C@H](C)[C@@H](O)[C@](C)(O)[C@@H](CC)OC(=O)[C@@H]2C)C[C@@]1(C)OC

stdout:
[64, 128]

---

- Tested on: Streptococcus pneumoniae
- test-name: Antimicrobial activity against erythromycin-susceptible Streptococcus pneumoniae ATCC 49619 by broth microdilution method
- Format: functional
value-type: MIC (µg/mL)
Give bare numbers, in µg/mL.

// each compound listed below needs its MIC
1. CC[C@H]1OC(=O)[C@H](C)[C@@H](O[C@H]2C[C@@](C)(OC)[C@@H](OC(=O)NCc3ccc(F)cc3)[C@H](C)O2)[C@H](C)[C@@H](O[C@@H]2O[C@H](C)C[C@H](N(C)C)[C@H]2O)[C@](C)(OC)C[C@@H](C)C(=O)[C@H](C)[C@@H](O)[C@]1(C)O
2. C=CCNC(=O)O[C@H]1[C@H](C)O[C@@H](O[C@H]2[C@H](C)[C@@H](O[C@@H]3O[C@H](C)C[C@H](N(C)C)[C@H]3O)[C@](C)(OC)C[C@@H](C)C(=O)[C@H](C)[C@@H](O)[C@](C)(O)[C@@H](CC)OC(=O)[C@@H]2C)C[C@@]1(C)OC
3. CC[C@H]1OC(=O)[C@H](C)[C@@H](O[C@H]2C[C@@](C)(OC)[C@@H](OC(=O)NCCCC(=O)NCc3ccccc3)[C@H](C)O2)[C@H](C)[C@@H](O[C@@H]2O[C@H](C)C[C@H](N(C)C)[C@H]2O)[C@](C)(OC)C[C@@H](C)C(=O)[C@H](C)[C@@H](O)[C@]1(C)O
4. CC[C@H]1OC(=O)[C@H](C)[C@@H](O[C@H]2C[C@@](C)(OC)[C@@H](OC(=O)NCCc3ccccc3)[C@H](C)O2)[C@H](C)[C@@H](O[C@@H]2O[C@H](C)C[C@H](N(C)C)[C@H]2O)[C@](C)(OC)C[C@@H](C)C(=O)[C@H](C)[C@@H](O)[C@]1(C)O

stdout:
1. 0.06
2. 0.25
3. 0.03
4. 0.03

Respectfully, I request MIC for each entry included below.
1. CC[C@H]1OC(=O)[C@H](C)[C@@H](O[C@H]2C[C@@](C)(OC)[C@@H](OC(=O)NCCc3ccccc3Cl)[C@H](C)O2)[C@H](C)[C@@H](O[C@@H]2O[C@H](C)C[C@H](N(C)C)[C@H]2O)[C@](C)(OC)C[C@@H](C)C(=O)[C@H](C)[C@@H](O)[C@]1(C)O
2. CC[C@H]1OC(=O)[C@H](C)[C@@H](O[C@H]2C[C@@](C)(OC)[C@@H](O)[C@H](C)O2)[C@H](C)[C@@H](O[C@@H]2O[C@H](C)C[C@H](N(C)C)[C@H]2O)[C@](C)(O)C[C@@H](C)C(=O)[C@H](C)[C@@H](O)[C@]1(C)O [ERYTHROMYCIN]
3. CC[C@H]1OC(=O)[C@H](C)[C@@H](O[C@H]2C[C@@](C)(OC)[C@@H](OC(=O)NCCCCCC(=O)NCCc3ccccc3Cl)[C@H](C)O2)[C@H](C)[C@@H](O[C@@H]2O[C@H](C)C[C@H](N(C)C)[C@H]2O)[C@](C)(OC)C[C@@H](C)C(=O)[C@H](C)[C@@H](O)[C@]1(C)O

stdout:
1. 0.06
2. 0.03
3. 0.03
